Source of measurements: paper PMC10726135

Molecular target: HNF4alpha2 (COS-7 nuclear extract) (Homo sapiens, UniProt P41235 1-474)
Sequence: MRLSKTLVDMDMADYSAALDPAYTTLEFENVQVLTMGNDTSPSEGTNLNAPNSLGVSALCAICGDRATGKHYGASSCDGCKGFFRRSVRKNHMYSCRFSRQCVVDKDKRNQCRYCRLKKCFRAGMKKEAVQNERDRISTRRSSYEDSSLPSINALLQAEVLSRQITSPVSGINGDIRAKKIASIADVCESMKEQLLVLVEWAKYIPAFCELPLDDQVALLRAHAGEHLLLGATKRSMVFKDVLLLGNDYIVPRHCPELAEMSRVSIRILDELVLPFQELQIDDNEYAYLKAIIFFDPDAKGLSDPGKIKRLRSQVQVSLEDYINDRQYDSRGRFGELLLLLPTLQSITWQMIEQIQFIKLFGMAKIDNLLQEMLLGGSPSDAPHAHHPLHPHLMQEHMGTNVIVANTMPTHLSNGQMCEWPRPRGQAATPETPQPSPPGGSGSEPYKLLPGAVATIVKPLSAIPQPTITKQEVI
Test: protein-binding microarray; COS-7 nuclear extract on double-stranded Agilent 4x180k PBM; binding buffer, salt, pH and temperature not given in the material; high values mean tight binding
Details: chain copies: 2; label: 3' end of strand 1 on the slide; dsDNA, one strand shown
Whole data set: some 18,000 sequences, median “log2 normalized intensity” near 0.39, cut for the highest 2% near 6.6. What follows is part of a selection rich in the highest values, with near analogues and random picks from the rest.
Outcome measure: binding signal (log2 normalized intensity)
Express it in log2 normalized intensity; write the number only.

Study these solved cases before continuing.
TCATTTCAGCCTTAACTCAAAAGGCCAAAGGCCTAGGGAGATTAGAGTATCGGTCGA | -0.978
GTCTGCCTGACTCCAGAGTCCAAACTGGGAGCCTAGGGAGATTAGAGTATCGGTCGA | 2.17
CAGGACTGCGTAACTTACAGTGCACTTTGAGCCTAGGGAGATTAGAGTATCGGTCGA | 4.9
TTAGCTTCCTCCCTTGGAATGTGACCTTAGGCCTAGGGAGATTAGAGTATCGGTCGA | 4.12
CTGAGCCTCAGAACCATTTGTGAGGATGGGGCCTAGGGAGATTAGAGTATCGGTCGA | -0.528

(Q) // returns reported binding signal for input TGACCTTGCAGTGGCAAGGCAAAAGAGACAGCCTAGGGAGATTAGAGTATCGGTCGA
(A) 1.17

(Q) // returns reported binding signal for input TCAGATATCTGAATGTACCTTTGAAACCTAGCCTAGGGAGATTAGAGTATCGGTCGA
(A) 2.87

(Q) // returns reported binding signal for input CCTGTACCTAGAATTCTTTCACTCCCTTTTGCCTAGGGAGATTAGAGTATCGGTCGA
(A) 1.12

(Q) // returns reported binding signal for input CAGTGGGGGGGGGGGGGGGGGTGTGTCTGTGCCTAGGGAGATTAGAGTATCGGTCGA
(A) 1.34

(Q) // returns reported binding signal for input AGCAGTCTGAGTAGGAAAGACTTGCTCATTGCCTAGGGAGATTAGAGTATCGGTCGA
(A) -0.18

(Q) // returns reported binding signal for input ATACTTAGGATTTTTGTGCCTCTTTGGTGAGCCTAGGGAGATTAGAGTATCGGTCGA
(A) 1.13

(Q) // returns reported binding signal for input TAACTTACAGTGCACTTTGACCGCTCATTTGCCTAGGGAGATTAGAGTATCGGTCGA
(A) 5.83

(Q) // returns reported binding signal for input CTGCGTAACTTACAGTGCACTTTGACCGCTGCCTAGGGAGATTAGAGTATCGGTCGA
(A) 7.14

(Q) // returns reported binding signal for input CACTGTTGCCCCTTCCAAAGTCCACCTCAAGCCTAGGGAGATTAGAGTATCGGTCGA
(A) 4.43

(Q) // returns reported binding signal for input AGGCTGAAGGGAAGCTCTGGGAGTGCCCTTGCCTAGGGAGATTAGAGTATCGGTCGA
(A) 1.93

(Q) // returns reported binding signal for input CAGTAACTGTCATGGATGACCTCTTTTAGTGCCTAGGGAGATTAGAGTATCGGTCGA
(A) 3.08

(Q) // returns reported binding signal for input TTTGCAACCTTTGATAACCTACAACCTTCTGCCTAGGGAGATTAGAGTATCGGTCGA
(A) 0.304
